B1: POU domain, class 3, transcription factor 3, residues 320 to 388; numbered along this chain, P20264 (parent)
chain: DDLEQFAKQFKQRRIKLGFTQADVGLALGTLYGNVFSQTTICRFEALQLSFKNMCKLKPLLNKWLEEAD

variants of: B1; test: abundance fitness (aPCA) (normalised: wild type 0, dead -1); higher = more abundant; growth selection in yeast, the domain comes from the species named; conditions: Homo sapiens
Threshold check on abundance fitness: at or above -0.2 gives Condition met, strictly below gives Condition not met.

Please check the record N34F and state if its abundance fitness is at or above -0.2.
Condition not met

Please check the record S37H and state if its abundance fitness is at or above -0.2.
Condition met

Please check the record T39P and state if its abundance fitness is at or above -0.2.
Condition not met

Please check the record T39G and state if its abundance fitness is at or above -0.2.
Condition not met

Please check the record V35I and state if its abundance fitness is at or above -0.2.
Condition not met

Please check the record N34V and state if its abundance fitness is at or above -0.2.
Condition not met

Please check the record L26K and state if its abundance fitness is at or above -0.2.
Condition met

Please check the record L28K and state if its abundance fitness is at or above -0.2.
Condition not met

Please check the record A27C and state if its abundance fitness is at or above -0.2.
Condition met

Please check the record Y32P and state if its abundance fitness is at or above -0.2.
Condition not met

Please check the record L28V and state if its abundance fitness is at or above -0.2.
Condition not met

Please check the record A27V and state if its abundance fitness is at or above -0.2.
Condition not met

Please check the record C42R and state if its abundance fitness is at or above -0.2.
Condition met

Values compiled from the Human Domainome abundance scans (Beltran et al. 2025).
